target: ACA-6501 aPL antibody; experiment: competitive ELISA I50; antibody not given, ACA-6501 serum on CL/β2-GPI assumed (Ex. 4B)
Square brackets hold non-standard residues; d marks the D form. Ends that are not written are not given here. Phg = N[C@H](C(=O)O)c1ccccc1
OUTCOME MEASURE: IC50 (µg/mL)

>>> quantitative_readout("CLGV[Phg]GKLC (not fully specified (bridges); printed as CLGV-pG-GKLC; cysteine pairing not given here) [3G3 conformational scan 21: CLGV-pG-GKLC]")
35
>>> quantitative_readout("CLGVLG[dK]LC (not fully specified (bridges); cysteine pairing not given here) [3G3 D amino acids 5: CLGVLG-dK-LC]")
170
>>> quantitative_readout("XLGVLGKLX (homocysteine (Hc) at positions 1 and 9; cyclic thioether) [HHTE, LJP 703 (cyclic thioether analog of 3G3, Hc-LGVLGKL-Hc)]")
80

I. CGGVLGKLC [3G3 Gly scan 1: …]
II. CLGVLGK[Phg]C (not fully specified (bridges); printed as CLGVLGK-pG-C; cysteine pairing not given here) [3G3 conformational scan 24: CLGVLGK-pG-C]
Lookup: Sorting by IC50 in descending order, would I or II appear first? Answer = label.
Found: I
(I: 310 µg/mL, II: 80 µg/mL)
